# pKi annotations
Biological target: human GABAA α2β2γ1 receptor (Homo sapiens (Human), UniProt P47869+Q8N1C3)
Test: Radioligand binding assay, competition for [3H]RO7239181, membranes from HEK293F cells
pKi: −log10 of the molar value.

# compound, targetSystem, pKi
data = [
    ("C[C@@H]1N=C(c2c(F)ccc(O)c2F)c2c(ccc(Cl)c2Cl)-n2ccc(=O)nc21", "human GABAA α2β2γ1 receptor (Homo sapiens (Human), UniProt P47869+Q8N1C3)", 8.18),
    ("O=c1ccn2c(n1)CN=C(c1cc(O)ccc1F)c1c-2ccc(C(F)(F)F)c1Cl", "human GABAA α2β2γ1 receptor (Homo sapiens (Human), UniProt P47869+Q8N1C3)", 8.73),
    ("CC(C)NC(=O)c1cn2c(n1)[C@H](C)N=C(c1nc(O)ccc1F)c1c-2ccc(C(F)(F)F)c1Cl", "human GABAA α2β2γ1 receptor (Homo sapiens (Human), UniProt P47869+Q8N1C3)", 7.97),
    ("Cc1nnc2n1-c1ccc(Cl)c(Cl)c1C(c1cc(O)ccc1F)=N[C@H]2C", "human GABAA α2β2γ1 receptor (Homo sapiens (Human), UniProt P47869+Q8N1C3)", 8.70),
    ("CN1C(=O)CN=C(c2c(F)ccc(O)c2F)c2c1ccc(Cl)c2Cl", "human GABAA α2β2γ1 receptor (Homo sapiens (Human), UniProt P47869+Q8N1C3)", 8.67),
    ("O=c1ccn2c(n1)CN=C(c1cc(O)ccc1F)c1c-2ccc(Cl)c1Cl", "human GABAA α2β2γ1 receptor (Homo sapiens (Human), UniProt P47869+Q8N1C3)", 8.66),
    ("CN1C(=O)CN=C(c2cc(O)ccc2F)c2c1ccc(C(F)(F)F)c2Cl", "human GABAA α2β2γ1 receptor (Homo sapiens (Human), UniProt P47869+Q8N1C3)", 8.63),
    ("Oc1ccc(F)c(C2=NCc3nncn3-c3ccc(C(F)(F)F)c(Cl)c32)c1", "human GABAA α2β2γ1 receptor (Homo sapiens (Human), UniProt P47869+Q8N1C3)", 8.98),
    ("O=c1ccn2c(n1)CN=C(c1c(F)ccc(O)c1F)c1c-2ccc(Cl)c1Cl", "human GABAA α2β2γ1 receptor (Homo sapiens (Human), UniProt P47869+Q8N1C3)", 8.33),
    ("CN1C(=O)CN=C(c2cc(O)ccc2F)c2cc(Cl)ccc21 [RE-B, reference compound]", "human GABAA α2β2γ1 receptor (Homo sapiens (Human), UniProt P47869+Q8N1C3)", 8.72),
    ("C[C@@H]1N=C(c2nc(O)ccc2F)c2c(ccc(C(F)(F)F)c2Cl)-n2cc(C(=O)NC3CC3)nc21", "human GABAA α2β2γ1 receptor (Homo sapiens (Human), UniProt P47869+Q8N1C3)", 7.81),
    ("Cc1nc2n(n1)-c1ccc(C(F)(F)F)c(Cl)c1C(c1nc(O)ccc1Cl)=N[C@H]2C", "human GABAA α2β2γ1 receptor (Homo sapiens (Human), UniProt P47869+Q8N1C3)", 8.11),
    ("C[C@@H]1N=C(c2nc(O)ccc2F)c2c(ccc(C(F)(F)F)c2Cl)-n2cc(C(=O)N3CCC3)nc21", "human GABAA α2β2γ1 receptor (Homo sapiens (Human), UniProt P47869+Q8N1C3)", 7.33),
    ("Cc1ccc2c(c1Cl)C(c1cc(O)ccc1F)=NCC(=O)N2C", "human GABAA α2β2γ1 receptor (Homo sapiens (Human), UniProt P47869+Q8N1C3)", 8.83),
    ("Cc1nc2n(n1)-c1ccc(C(F)(F)F)c(Cl)c1C(c1nc(O)ccc1F)=N[C@H]2C", "human GABAA α2β2γ1 receptor (Homo sapiens (Human), UniProt P47869+Q8N1C3)", 7.96),
    ("Cc1cn2c(n1)[C@H](C)N=C(c1nc(O)ccc1Cl)c1c-2ccc(C(F)(F)F)c1Cl", "human GABAA α2β2γ1 receptor (Homo sapiens (Human), UniProt P47869+Q8N1C3)", 8.28),
    ("Cc1cnc2n1-c1ccc(C(F)(F)F)c(Cl)c1C(c1nc(O)ccc1F)=N[C@H]2C", "human GABAA α2β2γ1 receptor (Homo sapiens (Human), UniProt P47869+Q8N1C3)", 8.05),
    ("Cc1nnc2n1-c1ccc(C(F)(F)F)c(Cl)c1C(c1nc(O)ccc1F)=N[C@H]2C", "human GABAA α2β2γ1 receptor (Homo sapiens (Human), UniProt P47869+Q8N1C3)", 7.40),
    ("Cc1nnc2n1-c1ccc(C(F)(F)F)c(Cl)c1C(c1nc(O)ccc1Cl)=N[C@H]2C", "human GABAA α2β2γ1 receptor (Homo sapiens (Human), UniProt P47869+Q8N1C3)", 7.86),
    ("Cc1cnc2n1-c1ccc(C(F)(F)F)c(Cl)c1C(c1nc(O)ccc1Cl)=N[C@H]2C", "human GABAA α2β2γ1 receptor (Homo sapiens (Human), UniProt P47869+Q8N1C3)", 8.10),
    ("Cc1nnc2n1-c1ccc(Cl)c(Cl)c1C(c1cc(O)ccc1F)=NC2", "human GABAA α2β2γ1 receptor (Homo sapiens (Human), UniProt P47869+Q8N1C3)", 8.84),
    ("C[C@@H]1N=C(c2nc(O)ccc2F)c2c(ccc(C(F)(F)F)c2Cl)-n2nc(C(=O)N3CC(F)C3)nc21", "human GABAA α2β2γ1 receptor (Homo sapiens (Human), UniProt P47869+Q8N1C3)", 7.93),
    ("Cc1cn2c(n1)[C@H](C)N=C(c1nc(O)ccc1F)c1c-2ccc(C(F)(F)F)c1Cl", "human GABAA α2β2γ1 receptor (Homo sapiens (Human), UniProt P47869+Q8N1C3)", 8.28),
    ("COC1CN(C(=O)c2nc3n(n2)-c2ccc(Cl)c(Cl)c2C(c2cc(O)ccc2F)=NC3)C1", "human GABAA α2β2γ1 receptor (Homo sapiens (Human), UniProt P47869+Q8N1C3)", 8.65),
]

* * *

Target: human GABAA α1β3γ2 receptor (Homo sapiens (Human), UniProt P14867+P18507)
Assay: Radioligand binding assay, competition for [3H]Flumazenil, HEK293F cells
Conditions: Log[Ki α1β3γ2 (nM)/Ki α2β2γ1 (nM)]

# molecule, LogSel
records = [
    ("Cc1nnc2n1-c1ccc(Cl)cc1C(c1ccccc1)=NC2 [Alprazolam, reference compound]", "−2.3"),
    ("COC1CN(C(=O)c2nc3n(n2)-c2ccc(Cl)c(Cl)c2C(c2cc(O)ccc2F)=NC3)C1", 1.19),
    ("Cc1nc2n(n1)-c1ccc(C(F)(F)F)c(Cl)c1C(c1nc(O)ccc1F)=N[C@H]2C", 2.99),
    ("C[C@@H]1N=C(c2nc(O)ccc2F)c2c(ccc(C(F)(F)F)c2Cl)-n2cc(C(=O)NC3CC3)nc21", 2.90),
    ("Cc1nnc2n1-c1ccc(Cl)cc1C(c1ccccc1Cl)=NC2 [Triazolam, reference compound]", "−1.5"),
    ("CN1C(=O)CN=C(c2cc(O)ccc2F)c2c1ccc(C(F)(F)F)c2Cl", 1.54),
    ("Cc1cn2c(n1)[C@H](C)N=C(c1nc(O)ccc1F)c1c-2ccc(C(F)(F)F)c1Cl", 2.89),
    ("Oc1ccc(F)c(C2=NCc3nncn3-c3ccc(C(F)(F)F)c(Cl)c32)c1", 1.94),
    ("O=c1ccn2c(n1)CN=C(c1cc(O)ccc1F)c1c-2ccc(Cl)c1Cl", 1.33),
]

* * *

Molecular target: human GABAA α2β2γ1 receptor (Homo sapiens (Human), UniProt P47869+Q8N1C3)
Experiment: Radioligand binding assay, competition for [3H]RO7239181, membranes from HEK293F cells
Settings: read-out: Ki h-GABAA α2β2γ1; [3H]RO7239181 20-30 nM, HEK293F membranes, 1 hour at 4° C., mean of two determinations
# log10 Ki annotations
measureName: log10 Ki (log10 of the value in nM)

# smilesCode, log10 Ki
measured = [
    ("C[C@@H]1N=C(c2c(F)ccc(O)c2F)c2c(ccc(Cl)c2Cl)-n2ccc(=O)nc21", 0.82),
    ("Cc1cnc2n1-c1ccc(C(F)(F)F)c(Cl)c1C(c1nc(O)ccc1Cl)=N[C@H]2C", 0.90),
    ("Cc1nnc2n1-c1ccc(C(F)(F)F)c(Cl)c1C(c1nc(O)ccc1Cl)=N[C@H]2C", 1.14),
    ("Cc1cnc2n1-c1ccc(C(F)(F)F)c(Cl)c1C(c1nc(O)ccc1F)=N[C@H]2C", 0.95),
    ("Cc1nc2n(n1)-c1ccc(C(F)(F)F)c(Cl)c1C(c1nc(O)ccc1F)=N[C@H]2C", 1.04),
    ("Cc1nnc2n1-c1ccc(Cl)c(Cl)c1C(c1cc(O)ccc1F)=N[C@H]2C", 0.30),
    ("Oc1ccc(F)c(C2=NCc3nncn3-c3ccc(C(F)(F)F)c(Cl)c32)c1", 0.02),
    ("Cc1cn2c(n1)[C@H](C)N=C(c1nc(O)ccc1Cl)c1c-2ccc(C(F)(F)F)c1Cl", 0.72),
    ("CN1C(=O)CN=C(c2cc(O)ccc2F)c2c1ccc(Cl)c2Cl", 0.36),
    ("C[C@@H]1N=C(c2nc(O)ccc2F)c2c(ccc(C(F)(F)F)c2Cl)-n2c1nc1c2CCC1", 0.82),
    ("C[C@@H]1N=C(c2cc(O)ccc2F)c2c(ccc(Cl)c2Cl)-n2ccc(=O)nc21", 0.15),
    ("Cc1cn2c(n1)[C@H](C)N=C(c1nc(O)ccc1F)c1c-2ccc(C(F)(F)F)c1Cl", 0.72),
    ("Cc1nnc2n1-c1ccc(Cl)c(Cl)c1C(c1cc(O)ccc1F)=NC2", 0.16),
]
